Sourced from patent US20160031999A1

Target: T1, human IL-11Rα (form used in the assay not stated) (human, UniProt Q14626 23-363, limits assumed)
T1 construct: also called hIL-11R; hIL-11Rα
T1 sequence: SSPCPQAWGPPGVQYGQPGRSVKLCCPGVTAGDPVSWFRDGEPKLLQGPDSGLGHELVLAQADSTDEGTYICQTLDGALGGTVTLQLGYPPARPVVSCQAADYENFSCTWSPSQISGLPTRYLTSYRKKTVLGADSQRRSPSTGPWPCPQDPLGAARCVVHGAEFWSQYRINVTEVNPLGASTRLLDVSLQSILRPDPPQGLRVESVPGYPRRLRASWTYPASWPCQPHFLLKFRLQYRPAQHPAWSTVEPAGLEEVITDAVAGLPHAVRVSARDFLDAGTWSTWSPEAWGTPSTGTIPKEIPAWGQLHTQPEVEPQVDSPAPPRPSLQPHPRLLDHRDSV
Test: Biacore, pH 8.5, 37°C
Below is a list of entries, each paired with its recorded Kd value.
Respond with the bare value in nM.

# annotated cases, reported Kd shown
binder	Kd, nM
hu8E2-TS-64 (antibody, V domains shown) VH: EVQLLESGGGLVQPGGSLRLSCAASGFTFSWYSMTWVRQAPGKGLEWVSSIVPSGGHTQYADSVKGRFTISRDNSKNTLYLQMNSLRAEDTAVYYCAKGPGWGSFDLWGRGTLVTVSS VL: DIQMTQSPSSLSASVGDRVTITCQASQDINNYLNWYQQKPGKAPKLLIYDASNLQTGVPSRFSGSGSGTDFTFTISSLQPEDIATYYCQQYESQWPQFGPGTKVDIK	0.636
hu8E2-TS-55 (antibody, V domains shown) VH: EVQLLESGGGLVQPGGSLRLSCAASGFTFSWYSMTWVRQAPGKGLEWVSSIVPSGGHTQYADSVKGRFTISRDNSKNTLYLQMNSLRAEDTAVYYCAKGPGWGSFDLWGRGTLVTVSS VL: DIQMTQSPSSLSASVGDRVTITCQASQDINNYLNWYQQKPGKAPKLLIYDASNLQTGVPSRFSGSGSGTDFTFTISSLQPEDIATYYCQQYETQTPAFGPGTKVDIK	0.483

Q) Look up Kd for this binder: hu8E2-TS-313 (antibody, V domains shown) VH: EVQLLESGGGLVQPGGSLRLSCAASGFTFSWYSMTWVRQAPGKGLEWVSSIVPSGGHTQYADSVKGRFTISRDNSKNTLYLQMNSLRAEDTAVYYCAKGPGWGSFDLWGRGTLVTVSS VL: DIQMTQSPSSLSASVGDRVTITCQASQDVSGYVEWYQQKPGKAPKLLIYDASNLQTGVPSRFSGSGSGTDFTFTISSLQPEDIATYYCQQYDNLSPTFGPGTKVDIK
A) 5.56
